What pIC50 was measured for each of the following?
Target: HLA-DRB1*0101 (human)
Experiment: competition binding; FIG. 35A
One number for each entry, as −log10 of the molar value.

EKDIHSGLIGPLLI [SEQ ID NO: 6 (EKDIHSGLIGPLLI)] | 5.72

Consider the record given below.
Q. // returns reported pIC50 for input KIVFKNMASRPYSIY [SEQ ID NO: 3 (KIVFKNMASRPYSIY)]
A. 5.66

# credit: patent US20210300985A1
